Listed here: items and their measured CC50 at 24 h.
test: Cytotoxicity against HEK293 cells assessed as cell viability after 24 hrs incubation byCCK-8 assay; assay type: toxicity, cell-based; details: human
Parameter: CC50 at 24 h (µg/mL)

{"Compound": "CCCCCCCCC(=O)NCc1ccc(O)c(OC)c1 [NONIVAMIDE]", "Measured result": 62}
{"Compound": "CCCCCCCCC(=O)NCc1ccc(OCCCCCCNC(=N)N)c(OCCCCCCNC(=N)N)c1", "Measured result": 27.8}

----------
Overview of recorded MIC for various compounds
tested on: Escherichia coli; experiment: Antibacterial activity against Escherichia coli ATCC 25922 assessed as inhibition of visible growth measured after 18 to 24 hrs by broth dilution method; assay type: functional; details: time 18-24 hrs

{"Compound": "CCCCCCCCC(=O)NCc1ccc(OCCCCCCNC(=N)N)c(OCCCCCCNC(=N)N)c1", "MIC": "1.56 µg/mL"}
{"Compound": "CCCCCCCCC(=O)NCc1ccc(OCCCCCCCCCCNC(=N)N)c(OC)c1", "MIC": "> 50 µg/mL"}
{"Compound": "COc1cc(CNC(=O)CCCC/C=C/C(C)C)ccc1OCCCCCCN", "MIC": "> 50 µg/mL"}
{"Compound": "CCCCCCCCC(=O)NCc1ccc(OCCCCN)c(OC)c1", "MIC": "> 50 µg/mL"}
{"Compound": "COc1cc(CNC(=O)CCCC/C=C/C(C)C)ccc1OCCCCNC(=N)N", "MIC": "50 µg/mL"}
{"Compound": "CCCCCCCCC(=O)NCc1ccc(O)c(OC)c1 [NONIVAMIDE]", "MIC": "> 50 µg/mL"}
{"Compound": "CCCCCCCCC(=O)NCc1ccc(O)c(O)c1", "MIC": "> 50 µg/mL"}
{"Compound": "CCCCCCCCC(=O)NCc1ccc(OCCCCCCCCCCCCNC(=N)N)c(OC)c1", "MIC": "> 50 µg/mL"}

Ref: ChEMBL document CHEMBL5236632
